Values compiled from patent US20210253725A1.

Biological target: T1, CD27 expressed on the cell surface of HT1080_CD27 cells (human, UniProt P26842 20-260); also: test concentration or dose not given here
T1 sequence (looked up): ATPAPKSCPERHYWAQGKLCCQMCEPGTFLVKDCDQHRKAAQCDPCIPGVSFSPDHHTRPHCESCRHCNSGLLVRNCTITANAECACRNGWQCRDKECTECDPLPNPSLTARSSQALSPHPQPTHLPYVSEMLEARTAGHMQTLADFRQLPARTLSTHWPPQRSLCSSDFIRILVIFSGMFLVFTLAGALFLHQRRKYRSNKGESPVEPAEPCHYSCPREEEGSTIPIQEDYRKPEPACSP
Assay: cell-based or functional assay
outcome_measure: Functional assay IL-8 (abs. corr.)
The reply should contain only the number, in abs. corr..

Look over these answered cases.
binder | Functional assay IL-8, abs. corr.
P018.S.09.A.C02 (antibody, V domains shown, V regions on human Ig constant parts; also called AB27_147) VH: QSVEESGGRLVTPGTPLTLTCTVSGIDLSSYVMSWVRQAPGKGLEWIGYIDYGGTAYYASWAKGRFTISKTSTTVELKITSPTIEDTATYFCARGGYGGYTLVTALWGPGTLVTVSS VL: DIVMTQTPASVSEPVGGTVTIKCQASQSISSYLSWYQQKPGQPPKLLIYSTSTLASGVSSRFKGSGSGTEYTLTISDLESADAATYYCQTYYGGGPFGNGFGGGTEVVVK | 0.07
P018.S.06.A.B01 (antibody, V domains shown, V regions on human Ig constant parts; also called AB27_98) VH: QSLEESGGGLVKPEGSLTLTCTASGFSFSSSYWICWVRQAPGKGLEWIGCIYAGTFSDTFYASWTKGRFTISKTSSTTVTLQMTSLTGADTATYFCARGHYYYTDNYTANGYGRGLTRLDLWGQGTLVTVSS VL: AAVLTQTPSPVSAAVGGTVTISCQASQSVYNNNNLAWYQQKAGQPPKLLIYGASNLESGVPSRFKGSGSGTQFTLTISDLESDDAASYYCAGGYTTSGDNGFGGGTEVVVK | 0.106
P018.S.05.A.F05 (as anti-CD27 antibody) (antibody, V domains shown, V regions on human Ig constant parts; also called AB27_92) VH: QSVEESGGRLVTPGTPLTLTCTVSGFSLSNYYMTWVRQAPGKGLEYIGIIGSGVSTYYANWAKGRFTISKASSTTVDLKMTSPTTEDTATYFCARDMYVGNWGDWGLWGQGTLVTVSS VL: AYDMTQTPASVEVAVGGTVTIKCQASQSISNNLNWYQQKPGQPPKLLIYSVSTLASGVPSRFKGSGSGTDYTLTISGVESVDAATYYCQQDYRIGDLDSAFGGGTEVVVK | 0.189

Continue with the binder presented below.
QUERY: Give a short answer stating reported Functional assay IL-8 for P018.S.10.A.A03 (antibody, V domains shown, V regions on human Ig constant parts; also called AB27_163) VH: QSLEESGGRLVTPGTPLTLTCTVSGIDLSSYAMGWVRQAPGKGLEWIGTISTISNTYYASWANGRFTISKTSTTVDLKMTSLTASDTATYFCARGASNTINDYFNLWGQGTLVTVSS VL: DIVMTQTPASVSEPVGGTVTIKCQASQSVGNYLAWYQQKPGQPPKLLIYDASNLASGVSSRFKGSGFATEFILTISDLESTDAATYYCHSYVYSSGNVYNGFGGGTEVVVK .
RESULT: 1.02
